Protocol details: Metabolic stability in human hepatic microsome
Type: in vitro ADME
Applied conditions: microsomes, pH 7.4; human hepatic microsome, NADPH(+); read-out: CL NADPH(+)
Starred links: 1 amine or outer side, 2 acyl side, 3 side chain; linkers in the order of their positions; H or OH if unused. Positions of bridges follow the written chain, without caps; N, C: chain ends. Non-standard residues stand in square brackets, D forms with d. Residues, ends and D or L forms follow the SMILES beside them. *: point of attachment. NMeF = CN[C@@H](Cc1ccccc1)C(=O)O; NMeGABA = CN(CCCC(=O)[*:2])[*:1]; Aoc(2) = CCCCCC[C@H](N)C(=O)O; NMeL = CN[C@@H](CC(C)C)C(=O)O; Ala(CN) = N#CC[C@H](N)C(=O)O; NMeV = CN[C@H](C(=O)O)C(C)C; NMeS = CN[C@@H](CO)C(=O)O; NMeA = CN[C@@H](C)C(=O)O; Piperidide = C1CCN(*)CC1; dNMeA = CN[C@H](C)C(=O)O; β3hA = C[C@H](N)CC(=O)O; Abu = CC[C@H](N)C(=O)O; Sar = CNCC(=O)O
microsomal CLint at 1 uM of 60 µL/min/mg or higher: 1 (yes). Under 60 µL/min/mg: 0 (no).

| Compound | Group |
| --- | --- |
| CC[C@H](C)[C@@H]1NC(=O)[C@H](C)N(C)C(=O)[C@H]([C@@H](C)O)NC(=O)[C@H](CC(C)C)N(C)C(=O)[C@H](Cc2ccccc2)NC(=O)[C@H](C(C)C)N(C)C(=O)[C@@H](C)N(C)C(=O)C[C@@H](C(=O)N(C)[C@@H](Cc2ccccc2)C(=O)N[C@@H](C)C(=O)N2CCCCC2)NC(=O)[C@H](C)N(C)C(=O)[C@H](CC(C)C)N(C)C1=O [DP-453] ([dNMeA][NMeV]F[NMeL]T[NMeA]I[NMeL][NMeA]D[NMeF]A-Piperidide; lactam N-10) | 1 (yes) |
| CCCCCC[C@@H]1NC(=O)[C@H](CO)N(C)C(=O)[C@H](CC(C)C)N(C)C(=O)[C@H](CC(C)C)N(C)C(=O)[C@H](CC(C)C)N(C)C(=O)[C@@H](C)NC(=O)[C@H](CC)NC(=O)[C@H](CC(C)C)N(C)C(=O)C[C@H](C)NC(=O)[C@H](CC(C)C)N(C)C(=O)CN(C)C1=O [DP-645] (cyclo([Abu][dA][NMeL][NMeL][NMeL][NMeS][Aoc(2)][Sar][NMeL][β3hA][NMeL])) | 1 (yes) |
| CC(C)C[C@H]1C(=O)NCC(=O)N[C@H](C(=O)N(C)[C@@H](Cc2ccccc2)C(=O)N[C@@H](C)C(=O)N2CCCCC2)CC(=O)N[C@H](C(C)C)C(=O)N[C@@H]([C@@H](C)O)C(=O)N(C)[C@@H](C)C(=O)N(C)[C@@H](Cc2ccccc2)C(=O)N[C@@H](C(C)C)C(=O)N(C)[C@@H](Cc2ccccc2)C(=O)N1C [DP-382] ([dV]T[NMeA][NMeF]V[NMeF][NMeL]GD[NMeF]A-Piperidide; lactam N-9) | 1 (yes) |
| CC(C)C[C@H]1C(=O)N(C)[C@@H](CC(C)C)C(=O)N[C@@H](C)C(=O)N[C@H](C(=O)N(C)[C@@H](Cc2ccccc2)C(=O)N[C@@H](C)C(=O)N2CCCCC2)CC(=O)N[C@@H](C)C(=O)N[C@@H](Cc2ccccc2)C(=O)N(C)[C@@H](CC(C)C)C(=O)N[C@@H](CC#N)C(=O)N(C)[C@@H](Cc2ccccc2)C(=O)N[C@@H](C)C(=O)N1C [DP-613] (AF[NMeL][Ala(CN)][NMeF]A[NMeL][NMeL]AD[NMeF]A-Piperidide; lactam N-10) | 0 (no) |
| CC[C@H](C)[C@@H]1NC(=O)CCCN(C)C(=O)C[C@@H](C(=O)N2CCCCC2)NC(=O)[C@H](Cc2ccccc2)N(C)C(=O)[C@H](CC(C)C)N(C)C(=O)CN(C)C(=O)[C@H]([C@@H](C)O)NC(=O)[C@H](C)N(C)C(=O)[C@H](C(C)C)N(C)C(=O)[C@H](C)NC(=O)[C@H](CC(C)C)N(C)C(=O)[C@H](Cc2ccccc2)N(C)C1=O [DP-468] ([NMeGABA]I[NMeF][NMeL]A[NMeV][NMeA]T[Sar][NMeL][NMeF]D-Piperidide; lactam N-12) | 0 (no) |

Origin of the recorded values: patent US9409952B2
